# testSystem: EPAC1-CNBD (Homo sapiens, UniProt O95398)
# Sequence (O95398 211-360): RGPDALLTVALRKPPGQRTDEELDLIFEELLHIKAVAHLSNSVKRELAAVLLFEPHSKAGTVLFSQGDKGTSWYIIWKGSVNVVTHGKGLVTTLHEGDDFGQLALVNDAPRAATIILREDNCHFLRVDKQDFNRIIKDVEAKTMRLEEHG
# protocolSummary: 8-NBD-cAMP competition binding assay, EPAC1-CNBD
# appliedConditions: compound 10 µM, EPAC1-CNBD 0.8 µM, 8-NBD-cAMP 62.5 nM; mean ± SEM; lower RFI = stronger binding
assayMetric: RFI (%) (relative fluorescence intensity), Table 3

{"compound": "Cc1cc(C)c(S(=O)(=O)NCCOc2ccc3ccccc3c2)c(C)c1 [Compound 12c]", "testSystem": "EPAC1-CNBD (Homo sapiens, UniProt O95398)", "observedValue": "105 ± 4%"}
{"compound": "Cc1ccc(S(=O)(=O)NC(=O)C(C)(C)Oc2ccc3ccccc3c2)c(C)c1 [Compound 12f]", "testSystem": "EPAC1-CNBD (Homo sapiens, UniProt O95398)", "observedValue": "76 ± 3%"}
{"compound": "Cc1cc(C)c(S(=O)(=O)NC(=O)C(F)Oc2ccc3ccccc3c2)c(C)c1 (stereo not shown) [Compound 12e]", "testSystem": "EPAC1-CNBD (Homo sapiens, UniProt O95398)", "observedValue": "82 ± 4%"}
{"compound": "Cc1cc(C)c(S(=O)(=O)NC(=O)CNc2ccc3ccccc3c2)c(C)c1 [Compound 12b]", "testSystem": "EPAC1-CNBD (Homo sapiens, UniProt O95398)", "observedValue": "97 ± 5%"}
{"compound": "Cc1cc(C)c(S(=O)(=O)NC(=O)CSc2ccc3ccccc3c2)c(C)c1 [Compound 12a]", "testSystem": "EPAC1-CNBD (Homo sapiens, UniProt O95398)", "observedValue": "92 ± 2%"}
{"compound": "Cc1ccc(S(=O)(=O)NCCOc2ccc3ccccc3c2)c(C)c1 [Compound 12g]", "testSystem": "EPAC1-CNBD (Homo sapiens, UniProt O95398)", "observedValue": "81 ± 3%"}
{"compound": "Cc1cc(C)c(S(=O)(=O)N2CCC(Oc3ccc4ccccc4c3)CC2)c(C)c1 [Compound 12d]", "testSystem": "EPAC1-CNBD (Homo sapiens, UniProt O95398)", "observedValue": "105 ± 3%"}
